Biological target: P2X purinoceptor 2 (Rattus norvegicus, UniProt P49653)
Sequence (P49653 whole entry): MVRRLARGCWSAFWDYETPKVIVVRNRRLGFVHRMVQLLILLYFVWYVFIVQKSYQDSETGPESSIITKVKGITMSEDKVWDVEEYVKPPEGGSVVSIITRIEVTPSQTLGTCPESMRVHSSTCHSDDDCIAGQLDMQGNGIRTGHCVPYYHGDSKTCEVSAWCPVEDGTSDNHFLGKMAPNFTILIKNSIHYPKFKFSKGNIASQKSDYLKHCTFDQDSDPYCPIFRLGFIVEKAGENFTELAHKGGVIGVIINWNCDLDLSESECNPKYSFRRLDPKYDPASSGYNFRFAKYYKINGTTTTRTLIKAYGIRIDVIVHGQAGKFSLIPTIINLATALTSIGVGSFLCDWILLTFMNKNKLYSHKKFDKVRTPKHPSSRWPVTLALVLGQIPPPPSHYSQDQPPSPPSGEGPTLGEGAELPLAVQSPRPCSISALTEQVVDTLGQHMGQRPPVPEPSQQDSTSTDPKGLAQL
Assay: Inhibition of inward ion current elicited by ATP at P2X2 receptor expressed in Xenopus oocytes
Type: functional, cell-based, Oocyte
Overview of recorded pIC50 for various molecules
Quick note: pIC50 values are minus log10 of concentrations in mol/L.

Using the record for Cc1nc(/N=N/c2cc(S(=O)(=O)O)ccc2S(=O)(=O)O)c(COP(=O)(O)O)c(C=O)c1O [ISOPPADS] , state its measured pIC50. 6.40

Quick one: give measured pIC50 for Cc1nc(/N=N/c2ccc(C(=O)O)cc2)c(CCP(=O)(O)O)c(C=O)c1O 5.62

Specify pIC50 for Cc1nc(/N=N/c2ccc(P(=O)(O)O)cc2)c(CP(=O)(O)O)c(C=O)c1O and stop. 6.02

Return reported pIC50. Input molecule: Cc1nc(/N=N/c2cc(S(=O)(=O)O)ccc2S(=O)(=O)O)c(CP(=O)(O)O)c(C=O)c1O 5.96

Give pIC50 for the following molecule: Cc1nc(/N=N/c2cc(CP(=O)(O)O)cc(CP(=O)(O)O)c2)c(CP(=O)(O)O)c(C=O)c1O 6.55

Please report the measured pIC50 for Cc1nc(/N=N/c2ccc(C(=O)O)cc2)c(CP(=O)(O)O)c(C=O)c1O 6.82

Give me measured pIC50, please, for this molecule: Cc1nc(/N=N/c2ccccc2)c(COP(=O)(O)O)c(C=O)c1O 5.92

====

Molecular target: UniProt P47824
Sequence (P47824 whole entry): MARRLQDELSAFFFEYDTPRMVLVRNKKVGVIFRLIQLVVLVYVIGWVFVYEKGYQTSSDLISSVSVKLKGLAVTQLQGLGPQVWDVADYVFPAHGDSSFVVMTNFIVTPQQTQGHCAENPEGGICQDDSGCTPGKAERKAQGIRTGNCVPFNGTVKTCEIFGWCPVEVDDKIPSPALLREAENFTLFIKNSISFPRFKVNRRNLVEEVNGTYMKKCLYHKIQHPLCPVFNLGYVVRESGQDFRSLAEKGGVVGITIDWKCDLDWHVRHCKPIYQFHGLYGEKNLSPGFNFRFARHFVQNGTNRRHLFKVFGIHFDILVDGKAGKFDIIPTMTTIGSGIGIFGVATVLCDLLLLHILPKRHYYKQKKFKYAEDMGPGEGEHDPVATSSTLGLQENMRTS
Assay: Inhibition of inward ion current elicited by ATP at P2X1 receptor expressed in Xenopus oocytes
ASSAY_METRIC: pIC50
// pIC50: -log10(molar conc.)

Reference set, count: 9
INSERT INTO assay_data (molecule, assay_metric, value_reported) VALUES
  ('Cc1nc(/N=N/c2ccccc2)c(COP(=O)(O)O)c(C=O)c1O', 'pIC50', 7.38),
  ('Cc1nc(/N=N/c2cc(S(=O)(=O)O)ccc2S(=O)(=O)O)c(COP(=O)(O)O)c(C=O)c1O [ISOPPADS]', 'pIC50', 7.37),
  ('Cc1nc(/N=N/c2ccc(C(=O)O)cc2)c(CCP(=O)(O)O)c(C=O)c1O', 'pIC50', 7.70),
  ('Cc1nc(/N=N/c2cc(S(=O)(=O)O)ccc2S(=O)(=O)O)c(CP(=O)(O)O)c(C=O)c1O', 'pIC50', 7.92),
  ('Cc1nc(/N=N/c2cc(CP(=O)(O)O)cc(CP(=O)(O)O)c2)c(CP(=O)(O)O)c(C=O)c1O', 'pIC50', 7.96),
  ('Cc1nc(/N=N/c2ccc(P(=O)(O)O)cc2)c(CP(=O)(O)O)c(C=O)c1O', 'pIC50', 7.92),
  ('Cc1nc(/N=N/c2cc(C(=O)O)ccc2C(=O)O)c(CP(=O)(O)O)c(C=O)c1O', 'pIC50', 7.43),
  ('Cc1nc(/N=N/c2ccc(C(=O)O)cc2)c(COP(=O)(O)O)c(C=O)c1O', 'pIC50', 8.03),
  ('Cc1nc(/N=N/c2ccc(S(=O)(=O)O)cc2S(=O)(=O)O)c(COP(=O)(O)O)c(C=O)c1O', 'pIC50', 7.00);

Please find the next molecule below.
Output measured pIC50 for this item: Cc1nc(/N=N/c2ccc(C(=O)O)cc2)c(CP(=O)(O)O)c(C=O)c1O 8.09

====

Biological target: P2Y purinoceptor 1 (Meleagris gallopavo)
Assay: Inhibition of 10 nM 2-MeS-ADP-stimulated phospholipase C in turkey erythrocyte membranes using [3H]inositol; IA means inactive
Format: functional, cell membranes
Calls of active or inactive are those of the source. The rule behind the calls is not given here.
ASSAY_METRIC: Inhibition activity

INSERT INTO measurements (compound, assay_target, assay_metric, value_reported) VALUES
  ('Cc1nc(/N=N/c2ccccc2)c2c(c1O)COP(=O)(O)OC2', 'P2Y purinoceptor 1 (Meleagris gallopavo)', 'Inhibition activity', 'inactive'),
  ('Cc1ncc(COP(=O)(O)O)c(COP(=O)(O)O)c1O', 'P2Y purinoceptor 1 (Meleagris gallopavo)', 'Inhibition activity', 'inactive'),
  ('Cc1nc(/N=N/c2cc(S(=O)(=O)O)ccc2S(=O)(=O)O)c2c(c1O)COP(=O)(O)OC2', 'P2Y purinoceptor 1 (Meleagris gallopavo)', 'Inhibition activity', 'inactive'),
  ('Cc1ncc2c(c1O)COP(=O)(O)OC2', 'P2Y purinoceptor 1 (Meleagris gallopavo)', 'Inhibition activity', 'inactive');

====

Molecular target: P2X purinoceptor 3 (Rattus norvegicus)
Sequence (P49654 whole entry): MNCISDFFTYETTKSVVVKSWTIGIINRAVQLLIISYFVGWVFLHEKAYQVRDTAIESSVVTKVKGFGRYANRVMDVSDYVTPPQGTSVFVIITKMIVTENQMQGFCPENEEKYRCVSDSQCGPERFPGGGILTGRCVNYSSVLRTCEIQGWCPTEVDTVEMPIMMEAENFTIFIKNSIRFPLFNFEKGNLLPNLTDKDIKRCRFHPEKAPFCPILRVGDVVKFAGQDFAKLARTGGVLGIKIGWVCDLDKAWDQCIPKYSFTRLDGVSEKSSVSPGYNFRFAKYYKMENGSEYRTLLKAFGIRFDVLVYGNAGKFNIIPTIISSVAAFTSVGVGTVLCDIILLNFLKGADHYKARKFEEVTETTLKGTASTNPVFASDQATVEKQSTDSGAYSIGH
Assay: Inhibition of inward ion current elicited by ATP was determined at recombinant P2X3 receptor expressed in Xenopus oocytes
Lab note: anything with IC50 below 200 nM is marked t; values at 200 nM or higher are marked f.

Example entries and their recorded answers appear below.
INSERT INTO assay_data (compound, cat) VALUES
  ('Cc1nc(/N=N/c2ccc(C(=O)O)cc2)c(CCP(=O)(O)O)c(C=O)c1O', 't'),
  ('Cc1nc(/N=N/c2ccc(S(=O)(=O)O)cc2S(=O)(=O)O)c(COP(=O)(O)O)c(C=O)c1O', 'f');

Find out if reported IC50 for Cc1nc(/N=N/c2cc(CP(=O)(O)O)cc(CP(=O)(O)O)c2)c(CP(=O)(O)O)c(C=O)c1O is less than 200 nM t

Problem: For the compound Cc1nc(/N=N/c2ccc(P(=O)(O)O)cc2)c(CP(=O)(O)O)c(C=O)c1O , is IC50 under 200 nM? t

Lab note: IC50 threshold 200 nM. Does this compound come in strictly under it? Cc1nc(/N=N/c2cc(S(=O)(=O)O)ccc2S(=O)(=O)O)c(CP(=O)(O)O)c(C=O)c1O f

IC50 strictly < 200 nM for this compound? Cc1nc(/N=N/c2ccc(C(=O)O)cc2)c(COP(=O)(O)O)c(C=O)c1O t

For Cc1nc(/N=N/c2ccccc2)c(COP(=O)(O)O)c(C=O)c1O , is the recorded IC50 below the cut-off of 200 nM? f

Consider the compound Cc1nc(/N=N/c2cc(C(=O)O)ccc2C(=O)O)c(CP(=O)(O)O)c(C=O)c1O . Is its IC50 strictly less than 200 nM? f

Is it true that IC50 reported for Cc1nc(/N=N/c2ccc(C(=O)O)cc2)c(CP(=O)(O)O)c(C=O)c1O is less than 200 nM? t

====

Molecular target: P2X purinoceptor 6 (Rattus norvegicus, UniProt P51579)
Experiment: Inhibition of inward ion current elicited by ATP at rat P2X6 receptor (mutant type)
Type: functional
Sequence (P51579 whole entry, looked up): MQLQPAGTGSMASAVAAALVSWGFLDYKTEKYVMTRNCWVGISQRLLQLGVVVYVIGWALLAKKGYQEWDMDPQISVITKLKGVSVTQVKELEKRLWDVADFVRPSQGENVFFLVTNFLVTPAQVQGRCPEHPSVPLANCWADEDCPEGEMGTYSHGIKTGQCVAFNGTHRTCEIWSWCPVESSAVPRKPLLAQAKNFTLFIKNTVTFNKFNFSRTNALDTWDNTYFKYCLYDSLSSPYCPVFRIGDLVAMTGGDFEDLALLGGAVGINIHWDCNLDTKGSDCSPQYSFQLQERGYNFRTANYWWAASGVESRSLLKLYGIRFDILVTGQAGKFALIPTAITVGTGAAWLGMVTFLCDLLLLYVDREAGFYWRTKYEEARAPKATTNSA
ASSAY_METRIC: IC50 (nM)
The response must be a number in nM with no trailing unit.

GET IC50 where system = P2X purinoceptor 6 (Rattus norvegicus, UniProt P51579) and item = Cc1nc(/N=N/c2ccc(S(=O)(=O)O)cc2S(=O)(=O)O)c(COP(=O)(O)O)c(C=O)c1O 2000

====

Target: P2X purinoceptor 6 (Rattus norvegicus, UniProt P51579)
Assay: Inhibition of inward ion current elicited by ATP at rat P2X6 receptor (wild type)
Assay type: functional
Sequence (P51579 whole entry): as the sequence (P51579 whole entry, looked up) above
ASSAY_METRIC: IC50

State its IC50 for this compound: Cc1nc(/N=N/c2ccc(S(=O)(=O)O)cc2S(=O)(=O)O)c(COP(=O)(O)O)c(C=O)c1O > 500 µM

====

Biological target: P2X purinoceptor 4 (Rattus norvegicus)
Sequence (P51577 whole entry): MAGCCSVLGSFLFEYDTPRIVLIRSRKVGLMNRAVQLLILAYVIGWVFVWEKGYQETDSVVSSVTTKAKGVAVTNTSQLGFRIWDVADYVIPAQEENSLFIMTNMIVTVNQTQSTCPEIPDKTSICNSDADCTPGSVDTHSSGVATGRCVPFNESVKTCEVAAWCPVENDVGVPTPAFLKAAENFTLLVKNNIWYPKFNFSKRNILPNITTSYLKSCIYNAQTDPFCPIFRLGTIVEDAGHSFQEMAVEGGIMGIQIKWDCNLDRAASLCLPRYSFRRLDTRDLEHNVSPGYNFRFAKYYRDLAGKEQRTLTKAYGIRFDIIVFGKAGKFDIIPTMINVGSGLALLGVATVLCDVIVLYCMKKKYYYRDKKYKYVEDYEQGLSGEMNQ
Experiment: Inhibition of inward ion current elicited by ATP at rat P2X4 receptor (wild type)
Assay type: functional
ASSAY_METRIC: IC50

Look up and state reported IC50 for Cc1nc(/N=N/c2ccc(S(=O)(=O)O)cc2S(=O)(=O)O)c(COP(=O)(O)O)c(C=O)c1O > 500 µM

====

Target: UniProt Q99572
Sequence (Q99572 whole entry): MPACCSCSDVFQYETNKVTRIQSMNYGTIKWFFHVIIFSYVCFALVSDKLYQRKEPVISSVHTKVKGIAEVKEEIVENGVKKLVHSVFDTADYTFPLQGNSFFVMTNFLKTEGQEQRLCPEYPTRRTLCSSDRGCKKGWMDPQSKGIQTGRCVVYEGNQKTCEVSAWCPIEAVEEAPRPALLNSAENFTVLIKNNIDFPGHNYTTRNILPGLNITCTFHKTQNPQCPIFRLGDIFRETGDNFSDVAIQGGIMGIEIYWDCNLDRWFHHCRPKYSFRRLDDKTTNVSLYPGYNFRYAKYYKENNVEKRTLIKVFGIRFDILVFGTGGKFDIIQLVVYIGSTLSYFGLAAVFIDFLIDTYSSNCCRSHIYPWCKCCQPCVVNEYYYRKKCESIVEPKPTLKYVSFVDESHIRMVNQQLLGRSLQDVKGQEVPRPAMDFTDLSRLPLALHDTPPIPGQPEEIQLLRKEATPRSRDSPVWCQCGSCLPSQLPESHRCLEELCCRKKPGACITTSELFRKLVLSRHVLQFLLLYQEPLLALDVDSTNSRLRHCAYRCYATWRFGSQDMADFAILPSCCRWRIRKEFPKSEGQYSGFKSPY
Assay: Percent inhibition of ATP-induced K+ efflux (with cations) in adherent HEK293 cells expressing human P2X7 receptor
Type: functional, cell-based
Conditions: concentration not given here
ASSAY_METRIC: inhibition (%)
Write the answer as a number in %, unit excluded.

INSERT INTO measurements (compound, assay_target, assay_metric, unit_of_measure, value_reported) VALUES
  ('CNc1ncnc2c1ncn2[C@H]1C[C@H](OP(=O)(O)O)[C@@H](COP(=O)(O)O)O1', 'UniProt Q99572', 'inhibition', '%', 37),
  ('Cc1nc(/N=N/c2cc(S(=O)(=O)O)ccc2Cl)c(CP(=O)(O)O)c(C=O)c1O', 'UniProt Q99572', 'inhibition', '%', -5);

Return the recorded inhibition value; entry: Cc1nc(/N=N/c2cc(CP(=O)(O)O)cc(CP(=O)(O)O)c2)c(CP(=O)(O)O)c(C=O)c1O 0
